test system: SK-MEL-5 melanoma; test: NCI-60 one-dose screen, 48 h (100 = growth as untreated, 0 = no growth, -100 = all killed); details: 10 µM
The panel holds about 83,000 compounds, 20% with a hit somewhere; the sample as a whole holds those more often.
value.type: growth (%)
Quick reminder: number only, in %, skip the unit.

compound=COc1ccc(/C(=C2/O[C@@H]([C@H]3COC(C)(C)O3)[C@H]3OC(C)(C)O[C@@H]23)c2cc(OC)c(OC)c(OC)c2)cc1O measured_on="SK-MEL-5 melanoma" value_type=growth numeric_result=61.8
compound=COc1cc(Cc2cc(-c3ccc(Cl)cc3)n[nH]c2=O)ccc1O measured_on="SK-MEL-5 melanoma" value_type=growth numeric_result=80.7
compound="C=C(NC(=O)C(=C)NC(=O)c1csc(C2=NC3c4csc(n4)C4NC(=O)c5csc(n5)C(C(C)(O)C(C)O)NC(=O)C5CSC(=N5)/C(=C/C)NC(=O)C(C(C)O)NC(=O)c5csc(n5)C3(CC2)NC(=O)C(C)NC(=O)C(=C)NC(=O)C(=C)NC(=O)C(C(C)C)NC2C=Cc3c(C(C)O)cc(nc3C2O)C(=O)OC4C)n1)C(N)=O (stereo not given)" measured_on="SK-MEL-5 melanoma" value_type=growth numeric_result=-56.2
compound=O=C1Nc2ccc(Cl)cc2/C1=C\c1c(-c2ccc(Cl)cc2)nc2sc(C3CC3)nn12 measured_on="SK-MEL-5 melanoma" value_type=growth numeric_result=72
compound=COc1cccc(Cn2c(-c3nonc3N)nc3ccccc32)c1 measured_on="SK-MEL-5 melanoma" value_type=growth numeric_result=16.8
compound="CCCCCCN1C(=O)C2=C(c3ccc(Cl)cc3)Nc3c(c(C)nn3-c3ccccc3)C2c2ccccc21 (stereo not given)" measured_on="SK-MEL-5 melanoma" value_type=growth numeric_result=92.7
compound=CCCCCC(=O)c1ccc(OCCCN2CCN(C(=O)OCC)CC2)cc1 measured_on="SK-MEL-5 melanoma" value_type=growth numeric_result=63.7
compound=COc1ccc(NC(=O)CSc2nc3ccccc3c(=O)n2CCc2ccccc2)cc1 measured_on="SK-MEL-5 melanoma" value_type=growth numeric_result=86.6
compound="COc1cc([C@@H]2c3cc4c(cc3C(Br)[C@H]3COC(=O)[C@H]23)OCO4)cc(OC)c1OC (stereo not given in full)" measured_on="SK-MEL-5 melanoma" value_type=growth numeric_result=-64.9

Now, please, on to the next compound.
In: Query growth for COc1ccc(Nc2nc3ccc(NC(=O)NC4CCCCC4)cc3[nH]c2=O)cc1
Out: 90.9

----------
test system: OVCAR-4 ovarian; experiment: NCI-60 one-dose screen, 48 h (100 = growth as untreated, 0 = no growth, -100 = all killed); details: 10 µM
The panel holds about 83,000 compounds, 20% with a hit somewhere; the sample as a whole holds those more often.
Items are presented alongside their recorded growth.
Quick reminder: number only, in %, skip the unit.

The examples below pair each entry with its known result.
molecule=COc1ccc2c(c1)sc1nc(-c3ccccc3)c(-c3cccnc3)n12 measured_on="OVCAR-4 ovarian" unit_label=% numeric_result=88.1
molecule=COC(=O)[C@@H]1[C@H](O)[C@H](C)[C@H](O)[C@@](C)(O)/C=C\C=C(C)C(=O)Nc2c(C)c(OC(C)=O)c3c(c2O)C(=O)C(C)=C2OCOC(=C23)C(C)=C[C@@](C)(O)[C@H](O)[C@@H](C)[C@H]1OC(C)=O measured_on="OVCAR-4 ovarian" unit_label=% numeric_result=117
molecule=Cc1ccc(NC(=O)CSc2nc3ccccc3c(=O)n2CCc2ccccc2)c(C(=O)O)c1 measured_on="OVCAR-4 ovarian" unit_label=% numeric_result=103
molecule=Clc1cc2c(c(CSc3nc4ccccc4n4cccc34)c1)OCOC2 measured_on="OVCAR-4 ovarian" unit_label=% numeric_result=3.98
molecule=CCCCCCCCCCCCCCCCCC(=O)OCCCCCCC measured_on="OVCAR-4 ovarian" unit_label=% numeric_result=110

In: Query growth for COC(=O)C(=C\c1ccc2c(c1)OCO2)/C(=C/c1ccc2c(c1)OCO2)C(=O)OC
Out: 106

In: Query growth for CCN(CC)CCC(=O)Nc1cccc2c1C(=O)c1c(c(O)c3ccccc3c1O)C2=O
Out: 60.2

In: Query growth for CCCCCCc1cc(N=Nc2ccc(S(=O)(=O)Nc3cc(C)nc(C)n3)cc2)c(O)cc1O
Out: 108

In: Query growth for COc1cc2c(cc1OCCCN1CCN(c3ncnc4ccccc34)CC1)N=CC1CCCN1C2=O (stereo not drawn)
Out: 4.86

In: Query growth for O=C(Nc1cccc(-n2cc(-c3ccncc3)c(-c3ccc(O)c(Cl)c3)n2)c1)c1ccc(Cl)c(Cl)c1
Out: 67
